Origin of the recorded values: patent US7863312B2

target: HEK293-EBNA cells transfected with pCEP4-hEP4 receptors (Homo sapiens, UniProt P35408); experiment: EP4 cAMP assay; conditions: total cAMP, 1 hour 37° C.
Sequence (P35408 whole entry): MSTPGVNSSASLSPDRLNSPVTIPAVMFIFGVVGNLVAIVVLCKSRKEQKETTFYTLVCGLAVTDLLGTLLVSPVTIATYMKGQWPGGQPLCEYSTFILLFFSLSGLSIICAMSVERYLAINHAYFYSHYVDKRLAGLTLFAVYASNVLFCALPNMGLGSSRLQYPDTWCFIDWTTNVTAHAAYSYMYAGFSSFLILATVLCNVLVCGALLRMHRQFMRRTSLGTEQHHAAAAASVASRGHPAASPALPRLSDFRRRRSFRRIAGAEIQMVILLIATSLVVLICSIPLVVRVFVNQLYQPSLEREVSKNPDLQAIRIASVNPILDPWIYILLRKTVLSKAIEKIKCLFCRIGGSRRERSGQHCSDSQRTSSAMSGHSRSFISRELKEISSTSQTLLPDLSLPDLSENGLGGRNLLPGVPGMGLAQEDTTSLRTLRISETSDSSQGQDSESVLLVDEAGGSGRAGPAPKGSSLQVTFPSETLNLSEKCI
compounds and their reported EC50
Report only the number, with the unit nM understood.

CC(C)CC(O)CCN1CCC(=O)N1CCc1ccc(C(=O)O)cc1 (stereo not drawn); 277
CCCCCC(O)CCN1CCC(=O)N1CCc1ccc(C(=O)O)cc1 (stereo not drawn); 5

Continue with the compound presented below.
Please look up its EC50: CCCCCC(O)CCCN1CCC(=O)N1CCc1ccc(C(=O)O)cc1 (stereo in doubt) 10

###

molecular target: EP4 receptor (Homo sapiens, UniProt P35408)
Sequence (P35408 whole entry): as above
readout-kind: pKi
Kindly note that pKi refers to -log10 of the concentration in mol/L and answer with the value alone.

Sample answers from the record:
CCCCCC(O)CCN1CCC(=O)N1CCc1ccc(C(=O)O)cc1 (stereo not drawn) [Example 1]; 6.60
CCCCCC(O)CCCN1CCC(=O)N1CCc1ccc(C(=O)O)cc1 (stereo in doubt) [Example 14]; 6.25
O=C(O)c1ccc(CCN2C(=O)CCN2CCC(O)Cc2cccc(F)c2)cc1 (stereo not drawn) [Example 25]; 7.44
O=C(O)c1ccc(CCN2C(=O)CCN2CCC(O)Cc2ccc3c(c2)OCO3)cc1 (stereo not drawn) [Example 28]; 6.42
CC(c1ccccc1)C(O)CCN1CCC(=O)N1CCc1ccc(C(=O)O)cc1 (stereo in doubt) [Example 30]; 7.03

Continue with the molecule presented below.
Param readout= pKi; system= EP4 receptor (Homo sapiens, UniProt P35408); entry= O=C(O)c1ccc(CCN2C(=O)CCN2CCC(O)Cc2ccccc2)cc1 (stereo not drawn) [Example 21] ; returns value. 7.17
